# Tested on: K-562 leukemia
# TEST_DETAILS: NCI tumour cell line growth inhibition, 48 h
PARAMETER_MEASURED: TGI

> print(dat)
                                   molecule  meas.value
1  CC1(C)O[C@@H](CP(c2cccc3ccccc23)c2cccc3ccccc23)[C@H](CP(c2cccc3ccccc23)c2cccc3ccccc23)O1    > 100 µM
2  COc1ccc(N2C(=O)C(N3C(=O)C=CC3=O)C2C=O)cc1 (stereo not drawn)    > 100 µM
3  CC(C)=CCC/C(C)=C/[C@H]1OC(=O)CC12C[C@H](O)C=CC2=O (stereo partly drawn)    > 100 µM
